These data points were gathered from ChEMBL document CHEMBL5058577.

- System: U2OS
- assay.explanation: Multiplex assay against U2OS
- Format: toxicity, cell-based
- test.settings: human, 24 h, 10 µM, compound concentration 10 uM, replicate 2
recorded.metric: Population Pyknosed Nuclei (%)
// units = %; emit number, no label

Known Population Pyknosed Nuclei (%) results, listed for orientation:
Task: Given the molecule CN(C)C/C=C/C(=O)Nc1ccc(C(=O)N2CCCC(Nc3ncc(Cl)c(-c4c[nH]c5ccccc45)n3)C2)cc1 (stereo not given) , what is its reported Population Pyknosed Nuclei (%)?
Result: 32

Task: Then Cc1ccc(OCC(O)C(C)NC(C)C)c2c1CCC2.Cl (stereo not given) ?
Result: 8

Task: Then COc1ccc2c(c1OCc1ccccc1)C[C@@H](C(=O)O)N(C(=O)C(c1ccccc1)c1ccccc1)C2 ?
Result: 4

---
Task: Given the molecule COc1cc(OC2CCN(C(C)=O)CC2)ccc1C(=O)N1CCC(N2C(=O)OCc3ccccc32)CC1 , what is its reported Population Pyknosed Nuclei (%)?
Result: 7

Task: Then O=C(O)CCC/C=C\CC1C(O)CC(O)C1/C=C/C(O)COc1cccc(Cl)c1 (stereo not given) ?
Result: 5

###

Each record here notes measured Population Tubulin-Different-Phenotype (%).
- System: HEK-293T
- assay.explanation: Multiplex assay against HEK293T
- Type: toxicity, cell-based
- test.settings: human, 48 h, 10 µM, compound concentration 10 uM, replicate 2

Task: What Population Tubulin-Different-Phenotype (%) appears in the records for this compound with HEK-293T? Cc1c(Cc2ccc3ccccc3n2)c2cc(F)ccc2n1CC(=O)O
Result: 16%

Task: Then O=C(NCCNCC(O)COc1ccc(O)cc1)N1CCOCC1.O=C(NCCNCC(O)COc1ccc(O)cc1)N1CCOCC1.O=C(O)/C=C/C(=O)O (stereo not drawn) [XAMOTEROL FUMARATE] ?
Result: 10%

Task: Then COc1cc(Nc2ncc3c(n2)-c2ccc(Cl)cc2C(c2c(F)cccc2OC)=NC3)ccc1C(=O)O ?
Result: 38%

Task: Then COc1ccc2c(c1OCc1ccccc1)C[C@@H](C(=O)O)N(C(=O)C(c1ccccc1)c1ccccc1)C2 ?
Result: 18%

Task: Then CN1CCN(c2ccc(Nc3c4ccccc4nc4ccccc34)cc2)CC1.Cl.Cl.O ?
Result: 89%

Task: Then Cc1ccc(OCC(O)C(C)NC(C)C)c2c1CCC2.Cl (stereo not drawn) ?
Result: 41%

Task: Then C=CCN1C[C@H](C(=O)N(CCCN(C)C)C(=O)NCC)C[C@@H]2c3cccc4[nH]cc(c34)C[C@H]21 ?
Result: 20%

Task: Then COc1ccc2[nH]c(I)c(CCNC(C)=O)c2c1 ?
Result: 16%

###

- Test system: HEK-293T
- assay.explanation: Multiplex assay against HEK293T
- Format: toxicity, cell-based
- test.settings: human, 24 h, 1 µM, compound concentration 1 uM, replicate 1
hey, just use true if measured Population Apoptotic (%) is less than 30%, otherwise false

Task: Please check: Population Apoptotic (%) for C=CCN1C[C@H](C(=O)N(CCCN(C)C)C(=O)NCC)C[C@@H]2c3cccc4[nH]cc(c34)C[C@H]21 , strictly under 30% or not?
Result: false

Task: Then CC(C)(C)c1ccc(CSc2cnn(C(C)(C)C)c(=O)c2Cl)cc1 ?
Result: false

Task: Then Cc1c(Cc2ccc3ccccc3n2)c2cc(F)ccc2n1CC(=O)O ?
Result: false

Task: Then COc1ccc2c(c1OCc1ccccc1)C[C@@H](C(=O)O)N(C(=O)C(c1ccccc1)c1ccccc1)C2 ?
Result: false

Task: Then CN(C)C/C=C/C(=O)Nc1ccc(C(=O)N2CCCC(Nc3ncc(Cl)c(-c4c[nH]c5ccccc45)n3)C2)cc1 (configuration not stated) ?
Result: false

---
Task: Please check: Population Apoptotic (%) for COc1cc(C(=O)N2CC[C@@H](O)[C@@H](N)C2)cc2nc(-c3cc4ccccc4n3CC3CC3)n(C)c12.Cl , strictly under 30% or not?
Result: false

Task: Then CCCCC[C@H](O)/C=C/[C@H]1[C@H](O)CC(=O)[C@@H]1CCCCCCC(=O)O ?
Result: false

Task: Then O=c1nc2[nH]c3ccccc3nc-2c(=O)[nH]1 ?
Result: true

Task: Then Nc1nc(CC(=O)Nc2ccc(CCNC[C@H](O)c3ccccc3)cc2)cs1 ?
Result: true
